- Test system: Lymphoma cell line
- test.method.notes: Ability to reverse the multidrug resistance (MDR) of mouse Lymphoma cells, by shrinkage (FSC) at 20 ug/mL.
- Assay type: functional

# molecule, FSC
rows = [
    ("CC(=O)O[C@@H]1[C@@H](OC(C)=O)C(C)(C)/C=C/[C@H](C)C(=O)C2(OC(C)=O)C[C@@](C)(O)[C@H](OC(=O)c3ccccc3)/C2=C\\[C@](C)(OC(C)=O)[C@@H]1OC(C)=O (stereo partly specified)", 555.8),
    ("CC(=O)O[C@@H]1[C@@H](OC(C)=O)C(C)(C)/C=C/[C@H](C)C(=O)[C@@]2(OC(C)=O)C[C@@H](C)[C@H](OC(=O)c3ccccc3)/C2=C\\[C@](C)(OC(C)=O)[C@@H]1OC(C)=O", 563.73),
    ("C=C1[C@H](OC(=O)C(C)C)[C@H](OC(=O)C(C)C)[C@@H](OC(C)=O)C(C)(C)[C@@H]2O[C@H]2[C@@H](C)C(=O)[C@@]2(OC(C)=O)C[C@@](C)(OC(C)=O)[C@H](OC(C)=O)[C@@H]2[C@H]1OC(C)=O", 667.76),
    ("CC(=O)O[C@@H]1[C@@H](OC(C)=O)C(C)(C)/C=C/[C@H](C)C(=O)[C@@]2(OC(C)=O)C[C@@H](C)[C@H](OC(=O)c3ccccc3)/C2=C\\[C@](C)(O)[C@@H]1OC(C)=O", 565.55),
    ("C=C1[C@H](OC(C)=O)CC(=O)C(C)(C)/C=C/[C@@H](C)C(=O)[C@@]2(OC(C)=O)C[C@@](C)(OC(C)=O)[C@H](OC(C)=O)[C@@H]2[C@H]1OC(C)=O [ESULATIN B]", 631.19),
    ("C=C1[C@H](OC(=O)C(C)C)[C@@H](OC(C)=O)[C@@H](OC(C)=O)C(C)(C)/C=C/[C@@H](C)C(=O)[C@@]2(OC(C)=O)C[C@@](C)(OC(C)=O)[C@H](OC(C)=O)[C@@H]2[C@H]1OC(C)=O", 620.4),
    ("CC(=O)O[C@@H]1[C@@H](OC(C)=O)C(C)(C)/C=C/[C@H](C)[C@H](OC(C)=O)[C@@]2(OC(C)=O)C[C@@H](C)[C@H](OC(=O)c3ccccc3)[C@@H]2/C=C(\\C)[C@@H]1O", 654.67),
    ("C=C1[C@H](OC(C)=O)C[C@@H](OC(=O)c2cccnc2)C(C)(C)/C=C/[C@@H](C)C(=O)[C@@]2(OC(C)=O)C[C@H](C)[C@H](OC(C)=O)[C@@H]2[C@H]1OC(C)=O", 640.31),
    ("C=C1[C@H](OC(C)=O)[C@@H](O)[C@@H](OC(=O)c2cccnc2)C(C)(C)/C=C/[C@H](C)[C@H](OC(C)=O)[C@@]2(O)C[C@@](C)(OC(C)=O)[C@H](OC(=O)c3ccccc3)[C@@H]2[C@H]1OC(C)=O", 636.35),
    ("CC(=O)O[C@@H]1[C@@H](OC(C)=O)C(C)(C)/C=C/[C@H](C)[C@H](OC(C)=O)[C@@]2(OC(C)=O)C[C@H](C)[C@H](OC(=O)c3ccccc3)/C2=C\\[C@](C)(O)[C@@H]1OC(C)=O", 658.03),
    ("C=C1[C@H](OC(C)=O)[C@@H](OC(C)=O)[C@@H](OC(C)=O)C(C)(C)/C=C/[C@H](C)[C@H](OC(C)=O)[C@@]2(O)C[C@@](C)(OC(C)=O)[C@H](OC(=O)c3ccccc3)[C@@H]2[C@H]1OC(C)=O", 587.54),
]
